Tested on: HBV DNA
Assay text: Quantitative PCR for measuring HBV DNA in cells (HBV DNA quantification)
Assay type: cell-based
Condition parameters: Hepatitis B virus, read-out: HBV DNA quantification (IC50 μM)
# maps each entry to its IC50
# output: bare number, implied unit µM

CS(=O)(=O)c1nc(Nc2ccc(F)c(Cl)c2)cc(N2CCC(N)CC2)n1 [Compound 26i] :: 0.181
CC(C)(C)OC(=O)N1CCN(c2cc(Nc3cc(F)c(F)c(F)c3)nc(S(C)(=O)=O)n2)CC1 [Compound 22h] :: 0.577
CC(C)(C)OC(=O)N1CCN(c2cc(Nc3ccc(F)cc3)nc(S(C)(=O)=O)n2)CC1 [Compound 22a] :: 0.831
COc1ncccc1C(=O)NCCNc1cc(Nc2ccccc2)nc([S+](C)[O-])n1 (stereo not drawn) :: 0.484
CS(=O)(=O)c1nc(Nc2ccc(F)c(Cl)c2)cc(N2C[C@@H]3C[C@H]2CN3)n1 [Compound 29c] :: 0.428
COc1ncccc1C(=O)NCCNc1cc(Nc2ccc(Cl)cc2)nc([S+](C)[O-])n1 (stereo not drawn) :: 0.299

Here's the next entry for you.
In plain terms, CS(=O)(=O)c1nc(Nc2ccc(F)c(Cl)c2)cc(N2CCNCC2)n1 [Compound 26c] has a documented IC50 of 0.189
